Recorded relative viability, one value per entry.
Test system: NCI-H596
Test: relative viability (nuclei count vs DMSO), 5 days (fraction); higher = more cells survive
Conditions: first compound 0.253 µM

MOLECULE	PROPERTY_LABEL	TEST_RESULT
Nc1cccc2c1CN(C1CCC(=O)NC1=O)C2=O (stereo not given) [Lenalidomide] + Cc1cc(Nc2cc(N3CCN(C)CC3)nc(Sc3ccc(NC(=O)C4CC4)cc3)n2)n[nH]1 [Tozasertib] (partner 0.1 µM)	relative viability	0.755
Nc1cccc2c1CN(C1CCC(=O)NC1=O)C2=O (stereo not given) [Lenalidomide] + NC(=O)Nc1cc(-c2cccc(F)c2)sc1C(=O)N[C@H]1CCCNC1 [AZD7762] (partner 0.2 µM)	relative viability	1.13
Nc1cccc2c1CN(C1CCC(=O)NC1=O)C2=O (stereo not given) [Lenalidomide] + Nc1nc2[nH]cc(CCc3ccc(C(=O)N[C@@H](CCC(=O)O)C(=O)O)cc3)c2c(=O)[nH]1 [Pemetrexed] (partner 0.2 µM)	relative viability	0.519
Nc1cccc2c1CN(C1CCC(=O)NC1=O)C2=O (stereo not given) [Lenalidomide] + O=C(CCCCCCC(=O)Nc1ccccc1)NO [Vorinostat] (partner 1 µM)	relative viability	0.584

Task: Fill in: relative viability of Nc1cccc2c1CN(C1CCC(=O)NC1=O)C2=O (stereo not given) [Lenalidomide] + CS(=O)(=O)CCNCc1ccc(-c2ccc3ncnc(Nc4ccc(OCc5cccc(F)c5)c(Cl)c4)c3c2)o1 [Lapatinib] (partner 2 µM) is ___
Output: 1.14

----------
Recorded relative viability, one value per entry.
System: NCI-H460
Assay: relative viability (nuclei count vs DMSO), 5 days (fraction); higher = more cells survive
Settings: first compound 0.006325 µM
No unit in the answer, please; the number alone is enough.

Answered cases to consult:
COMPOUND	MEASURED_TARGET	relative viability
CCNC(=O)c1noc(-c2cc(C(C)C)c(O)cc2O)c1-c1ccc(CN2CCOCC2)cc1 [Luminespib] + C[C@@H](Oc1cc(-c2cnn(C3CCNCC3)c2)cnc1N)c1c(Cl)ccc(F)c1Cl [Crizotinib] (partner 1 µM)	NCI-H460	0.705
CCNC(=O)c1noc(-c2cc(C(C)C)c(O)cc2O)c1-c1ccc(CN2CCOCC2)cc1 [Luminespib] + COc1cccc2cc(-c3nc([C@H]4CC[C@H](C(=O)O)CC4)n4ncnc(N)c34)[nH]c12 [OSI-027] (partner 0.5 µM)	NCI-H460	0.586
CCNC(=O)c1noc(-c2cc(C(C)C)c(O)cc2O)c1-c1ccc(CN2CCOCC2)cc1 [Luminespib] + CC(=O)c1c(C)c2cnc(Nc3ccc(N4CCNCC4)cn3)nc2n(C2CCCC2)c1=O [Palbociclib] (partner 0.5 µM)	NCI-H460	0.126

We next turn to a different compound, shown below.
Task: Fill in: relative viability of CCNC(=O)c1noc(-c2cc(C(C)C)c(O)cc2O)c1-c1ccc(CN2CCOCC2)cc1 [Luminespib] + O=C(CCCCCCC(=O)Nc1ccccc1)NO [Vorinostat] (partner 1 µM) is ___
Output: 0.68

----------
Tested on: COR-L23
Assay: relative viability (nuclei count vs DMSO), 5 days (fraction); higher = more cells survive
Conditions: first compound 6.325 µM
PROPERTY_LABEL: relative viability
No unit in the answer, please; the number alone is enough.

COMPOUND	relative viability
Cc1csc(=NC2CCCCC2)n1/N=C/c1ccc(O)c(O)c1O [MIM1] + Cc1nc(Nc2ncc(C(=O)Nc3c(C)cccc3Cl)s2)cc(N2CCN(CCO)CC2)n1 [Dasatinib] (partner 0.075 µM)	0.327
Cc1csc(=NC2CCCCC2)n1/N=C/c1ccc(O)c(O)c1O [MIM1] + N=C(N)NC(=N)NCCc1ccccc1 [Phenformin] (partner 250 µM)	0.373
Cc1csc(=NC2CCCCC2)n1/N=C/c1ccc(O)c(O)c1O [MIM1] + CS(=O)(=O)N1CCN(Cc2cc3nc(-c4cccc5[nH]ncc45)nc(N4CCOCC4)c3s2)CC1 [Pictilisib] (partner 1 µM)	0.525
Cc1csc(=NC2CCCCC2)n1/N=C/c1ccc(O)c(O)c1O [MIM1] + CC(C)C[C@H](NC(=O)[C@H](Cc1ccccc1)NC(=O)c1cnccn1)B(O)O [Bortezomib] (partner 0.002 µM)	0.659

We next turn to a different compound, shown below.
Task: Fill in: relative viability of Cc1csc(=NC2CCCCC2)n1/N=C/c1ccc(O)c(O)c1O [MIM1] + O=C(CCCCCCC(=O)Nc1ccccc1)NO [Vorinostat] (partner 1 µM) is ___
Output: 0.314

Data provenance is the supplement of paper PMC10307832.
